Experiment: Oral bioavailability in Beagle dog at 0.9 mg/kg, iv or 3.6 mg/kg, po
Assay type: ADME, organism-based, Canis lupus familiaris
Conditions: in vivo
MEASURED ATTRIBUTE: bioavailability

Reported bioavailability ( Cc1ccc2c(c1)c(O)c(C1=NS(=O)(=O)c3ccccc3N1)c(=O)n2CCC(C)C ) = > 50%

---

Assay: Oral bioavailability in Sprague-Dawley rat at 1.2 mg/kg, iv or 3.7 mg/kg, po
Assay type: ADME, organism-based
Settings: in vivo
MEASURED ATTRIBUTE: bioavailability (%)
# output: bare number, implied unit %

Reported bioavailability ( Cc1ccc2c(c1)c(O)c(C1=NS(=O)(=O)c3ccccc3N1)c(=O)n2CCC(C)C ) = 100

---

Test: Clearance in Sprague-Dawley rat at 1.3 mg/kg, iv or 7.7 mg/kg, po
Format: ADME, organism-based
Conditions: in vivo
MEASURED ATTRIBUTE: clearance (mL/min/kg)
Give a bare numeral; the unit mL/min/kg is implied.

Notebook: O=c1c(C2=NS(=O)(=O)c3ccccc3N2)c(O)c2ccccc2n1CCC1CC1 , clearance read as 1.7

---

Molecular target: UniProt:O39930
Experiment: Inhibitory activity against HCV 1b NS5B RNA polymerase
Set-up: species or system Hepatitis C virus subtype 1b
MEASURED ATTRIBUTE: IC50 (nM)
Your answer should be a plain number; it is taken to be in nM.

Entry O=c1c(C2=Nc3ccccc3S(=O)(=O)N2)c(O)c2cc(F)ccc2n1CCC1CC1 , IC50 reported as 10

---

Experiment: Cmax in Beagle dog at 0.8 mg/kg, iv or 4.0 mg/kg, po
Format: ADME, organism-based, Canis lupus familiaris
Conditions: in vivo
MEASURED ATTRIBUTE: Cmax (ng/mL)
Give just the numeric value; ng/mL need not be written.

Kindly note the recorded Cmax for O=c1c(C2=Nc3ccccc3S(=O)(=O)N2)c(O)c2cc(F)ccc2n1CCC1CC1 , which is 4460

---

Target: RNA-directed RNA polymerase (Hepacivirus hominis)
Sequence (O39930 whole entry): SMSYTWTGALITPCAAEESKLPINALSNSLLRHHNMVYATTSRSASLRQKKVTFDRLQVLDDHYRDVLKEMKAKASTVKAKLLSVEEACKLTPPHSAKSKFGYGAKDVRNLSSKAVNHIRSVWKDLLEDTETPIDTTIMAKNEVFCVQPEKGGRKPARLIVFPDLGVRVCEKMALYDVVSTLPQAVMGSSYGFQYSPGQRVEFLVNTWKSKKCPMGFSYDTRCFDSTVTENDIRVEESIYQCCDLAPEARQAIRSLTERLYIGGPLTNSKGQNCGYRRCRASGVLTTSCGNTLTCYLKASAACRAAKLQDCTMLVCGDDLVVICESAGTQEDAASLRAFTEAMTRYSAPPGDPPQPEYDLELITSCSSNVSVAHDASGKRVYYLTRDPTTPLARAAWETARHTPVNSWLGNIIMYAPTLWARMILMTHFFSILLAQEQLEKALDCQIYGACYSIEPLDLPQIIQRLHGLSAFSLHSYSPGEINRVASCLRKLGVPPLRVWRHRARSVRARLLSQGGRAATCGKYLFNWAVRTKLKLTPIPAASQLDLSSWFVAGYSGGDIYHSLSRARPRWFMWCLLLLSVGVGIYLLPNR
Assay: Inhibition of HCV RNA replication in Huh7 cells
Assay type: functional, cell-based
Conditions: Huh-7
MEASURED ATTRIBUTE: EC90 (nM)
The response must be a number in nM with no trailing unit.

Worked cases, EC90 given:
CC(C)CCn1c(=O)c(C2=NS(=O)(=O)c3ccccc3N2)c(O)c2cc(Cl)ccc21 3830
CC(C)CCn1c(=O)c(C2=NS(=O)(=O)c3ccccc3N2)c(O)c2cc(OCC#N)ccc21 1610
O=c1c(C2=NS(=O)(=O)c3ccccc3N2)c(O)c2ccccc2n1CC1CCC1 1190
O=c1c(C2=NS(=O)(=O)c3ccccc3N2)c(O)c2ccccc2n1CCC1CC1 808
CCOC(=O)CNc1ccc2c(c1)c(O)c(C1=NS(=O)(=O)c3ccccc3N1)c(=O)n2CCC(C)C 998
CC(C)CCn1c(=O)c(C2=NS(=O)(=O)c3ccccc3N2)c(O)c2ccccc21 1420
Cc1ccc2c(c1)c(O)c(C1=NS(=O)(=O)c3ccccc3N1)c(=O)n2CCC(C)C 831
CC(C)CCn1c(=O)c(C2=NS(=O)(=O)c3ccccc3N2)c(O)c2cc(N)ccc21 1200

# EC90 (molecule: O=c1c(C2=NS(=O)(=O)c3ccccc3N2)c(O)c2ccccc2n1Cc1ccoc1 ) is 2530

Reported EC90 for O=c1c(C2=Nc3ccccc3S(=O)(=O)N2)c(O)c2cc(F)ccc2n1CCC1CC1 was 207

// recorded EC90 for CC(C)CCn1c(=O)c(C2=NS(=O)(=O)c3ccccc3N2)c(O)c2cc(NCC(=O)O)ccc21 : 9610

---

Experiment: Volume of distribution in Sprague-Dawley rat at 1.2 mg/kg, iv or 3.7 mg/kg, po
Format: ADME, organism-based
Conditions: in vivo, read-out: Vdss
MEASURED ATTRIBUTE: Vd
Don't forget the unit after the number, please.

Memo: Cc1ccc2c(c1)c(O)c(C1=NS(=O)(=O)c3ccccc3N1)c(=O)n2CCC(C)C , reported Vd: 0.81 L/kg

---

Target: RNA-directed RNA polymerase (Hepacivirus hominis)
Assay: Inhibitory activity against HCV delta 21 NS5B RNA polymerase by SPA assay
Set-up: species or system Hepatitis C virus subtype 1b
IC50 less than 80 nM is Criterion met; IC50 greater than or equal to 80 nM is Criterion not met.

MOLECULE	CLASS LABEL
CC(C)CCn1c(=O)c(C2=NS(=O)(=O)c3ccccc3N2)c(O)c2cc(C(=O)O)ccc21	Criterion not met
CCOC(=O)c1ccc2c(O)c(C3=Nc4ccccc4S(=O)(=O)N3)c(=O)n(CCC(C)C)c2c1	Criterion not met
CN(C)C(=O)Cn1c(=O)c(C2=Nc3ccccc3S(=O)(=O)N2)c(O)c2cc(F)ccc21	Criterion not met
O=c1[nH]c(-c2c(O)c3cc(F)ccc3n(CCC3CC3)c2=O)nc2ccccc12	Criterion not met
O=c1c(C2=NS(=O)(=O)c3ccccc3N2)c(O)c2ccccc2n1CCCc1ccccc1	Criterion not met
CC(C)CCn1c(=O)c(C2=NS(=O)(=O)c3ccccc3N2)c(O)c2cc(Cl)ccc21	Criterion met
O=c1c(C2=Nc3ccccc3S(=O)(=O)N2)c(O)c2ccccc2n1Cc1ccc([N+](=O)[O-])cc1	Criterion not met
Cc1nc(Cn2c(=O)c(C3=Nc4ccccc4S(=O)(=O)N3)c(O)c3ccccc32)cs1	Criterion not met

query: For CC(C)CCn1c(=O)n(C2=Nc3ccccc3S(=O)(=O)N2)c(=O)c2ccccc21 , is the recorded IC50 below the cut-off of 80 nM?
result: Criterion not met

query: Is IC50 of CC(C)(C)CCn1c(=O)c(C2=NS(=O)(=O)c3ccccc3N2)c(O)c2ccccc21 strictly below 80 nM?
result: Criterion met

query: Is IC50 of CC(C)CCn1cc(C2=NS(=O)(=O)c3ccccc3N2)c(=O)c2ccccc21 strictly below 80 nM?
result: Criterion not met

query: hey, is IC50 for CC(CCn1c(=O)c(C2=NS(=O)(=O)c3ccccc3N2)c(O)c2ccccc21)C(F)(F)F (configuration not stated) lower than 80 nM or not?
result: Criterion met

query: hey, is IC50 for CSCCn1c(=O)c(C2=NS(=O)(=O)c3ccccc3N2)c(O)c2ccccc21 lower than 80 nM or not?
result: Criterion met

query: Decide: IC50 of O=c1c(C2=NS(=O)(=O)c3ccccc3N2)c(O)c2ccccc2n1CCCO strictly below 80 nM?
result: Criterion not met

query: Quick check: IC50 of CC(C)CCn1c(=O)c(C2=NS(=O)(=O)c3ccccc3N2)c(O)c2cc(NC(=O)c3ccccc3)ccc21 under 80 nM?
result: Criterion not met

query: Record C=CCn1c(=O)c(C2=Nc3ccccc3S(=O)(=O)N2)c(O)c2ccccc21 : is its IC50 strictly below 80 nM?
result: Criterion not met

query: Hi there! Is IC50 for O=c1c(C2=Nc3ccccc3S(=O)(=O)N2)c(O)c2ccccc2n1-c1ccccc1 below 80 nM, do you know?
result: Criterion not met

query: Strictly below 80 nM: is that where IC50 of CC(C)CCn1c(=O)c(C2=Nc3ccccc3S(=O)(=O)N2)c(O)c2ccc([N+](=O)[O-])cc21 sits?
result: Criterion not met

query: In plain terms, does CC(C)CCn1c(=O)c(C2=Nc3ccccc3S(=O)(=O)N2)c(O)c2cc(Br)ccc21 come in under 80 nM for IC50?
result: Criterion not met

query: Is IC50 strictly under 80 nM for the entry C#CCCCn1c(=O)c(C2=Nc3ccccc3S(=O)(=O)N2)c(O)c2ccccc21 ?
result: Criterion not met

query: Is it true that IC50 reported for CCn1c(=O)c(C2=Nc3ccccc3S(=O)(=O)N2)c(O)c2ccccc21 is less than 80 nM?
result: Criterion not met

query: Is the reported IC50 for O=c1c(C2=NS(=O)(=O)c3ccccc3N2)c(O)c2ccccc2n1Cc1ccccn1 strictly below 80 nM?
result: Criterion not met

query: Is 80 nM strictly greater than the molecule's reported IC50? molecule: CC(C)(C)c1ccc(Cn2c(=O)c(C3=NS(=O)(=O)c4ccccc4N3)c(O)c3ccccc32)cc1
result: Criterion not met

query: Determine whether this molecule shows IC50 lower than 80 nM (ties excluded): O=c1c(C2=NS(=O)(=O)c3ccccc3N2)c(O)c2ccccc2n1CCN1CCCC1
result: Criterion not met

query: Consider CC(C)CCn1c(=O)c(C2=Nc3ccccc3S(=O)(=O)N2)cc2ccccc21 . Does its IC50 lie strictly below 80 nM?
result: Criterion not met

query: Given CC(C)CCn1c(=O)c(C2=NS(=O)(=O)c3ccccc3N2)c(O)c2c([N+](=O)[O-])cccc21 , is recorded IC50 strictly lower than 80 nM?
result: Criterion not met

query: Bench note: check whether NC(=O)CCCn1c(=O)c(C2=Nc3ccccc3S(=O)(=O)N2)c(O)c2ccccc21 shows IC50 below 80 nM
result: Criterion not met

---

Assay: Volume of distribution in cynomolgus monkey at 1.0 mg/kg, iv or 3.6 mg/kg, po
Format: ADME, organism-based, Macaca fascicularis
Conditions: in vivo, read-out: Vdss
MEASURED ATTRIBUTE: Vd (L/kg)
Note: unit L/kg is implicit; provide only the numeric part.

Vd reported for this molecule Cc1ccc2c(c1)c(O)c(C1=NS(=O)(=O)c3ccccc3N1)c(=O)n2CCC(C)C : 0.34
